Target: T1, vinculin domain 1 (Vd1; residues 1–258) (chicken, UniProt P12003 1-258)
T1 sequence (looked up): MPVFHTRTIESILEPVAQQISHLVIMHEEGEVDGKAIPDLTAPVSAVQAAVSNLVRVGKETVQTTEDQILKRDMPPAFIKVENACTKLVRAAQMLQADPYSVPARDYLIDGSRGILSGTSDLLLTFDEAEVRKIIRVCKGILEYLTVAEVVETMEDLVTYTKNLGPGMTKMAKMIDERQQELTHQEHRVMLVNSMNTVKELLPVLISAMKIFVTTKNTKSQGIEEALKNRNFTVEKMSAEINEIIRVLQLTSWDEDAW
Assay: ITC
readout_label: Kd
Your reply should be a number followed by the unit it is expressed in.

// sample GEMVRQARILAQATSDLVNAIKADA (peptide, UniProt P26039 820-844, looked up) [talin VBS (residues 820–844) in talin R3] , its Kd was 800 nM
